# Test system: SF-539
# Run description: NCI tumour cell line growth inhibition, 48 h
Active and inactive are the calls of the source. Rule as the data show it: active = GI50 up to about 1.1 µM and inactive = higher.
A correct response names exactly one class from active, inactive

Reference set, count: 5
INSERT INTO measurements (molecule, qualitative_label) VALUES
  ('COc1cc(OC)c2c(c1)OC(c1ccccc1)CC2=O (stereo not drawn)', 'inactive'),
  ('CC(O)C1(CNc2cc(Cl)nc(N)n2)CCCC1 (stereo not drawn)', 'inactive'),
  ('COc1cc2cc(c1Cl)N(C)C(=O)C[C@H](OC(=O)[C@H](C)N(C)C(C)=O)[C@]1(C)O[C@H]1[C@H](C)[C@@H]1C[C@@](O)(NC(=O)O1)[C@H](OC)/C=C/C=C(/C)C2', 'active'),
  ('O=C1O[C@H](C(Cl)(Cl)Cl)N2CCCC12 (stereo partly drawn)', 'inactive'),
  ('CN(C)c1ccc(C(=N/N=C2\C(=O)Nc3ccccc32)c2ccc(N(C)C)cc2)cc1', 'active');

In this assay, the call recorded for C=C(C)C1CC[C@]2(C(=O)O)CCC3(C)[C@H](CCC4[C@@]5(C)CC[C@H](OC6OC(CO)C(O)C6OC6OC(C)C(O)C(O)C6O)[C@@](C)(CO)C5CC[C@]43C)C12 (stereo partly drawn) was what?
inactive

Hi, do you know how CC1=C2[C@@H](c3ccccc3)C3C=CC2(C=C3C(F)(F)F)N(C(=O)NC2CCCCC2)C1=O (stereo partly drawn) came out in this test?
inactive

Hi, sorry to bother you, what did the test record for "COc1ccc(NC(=S)C#N)cc1" ?
inactive
